target: peripheral anionic site of Electrophorus electricus AChE (EeAChE) (Electrophorus electricus); type: binding;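 note: compounds tested at 20 µM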
Sequence (O42275 24-633): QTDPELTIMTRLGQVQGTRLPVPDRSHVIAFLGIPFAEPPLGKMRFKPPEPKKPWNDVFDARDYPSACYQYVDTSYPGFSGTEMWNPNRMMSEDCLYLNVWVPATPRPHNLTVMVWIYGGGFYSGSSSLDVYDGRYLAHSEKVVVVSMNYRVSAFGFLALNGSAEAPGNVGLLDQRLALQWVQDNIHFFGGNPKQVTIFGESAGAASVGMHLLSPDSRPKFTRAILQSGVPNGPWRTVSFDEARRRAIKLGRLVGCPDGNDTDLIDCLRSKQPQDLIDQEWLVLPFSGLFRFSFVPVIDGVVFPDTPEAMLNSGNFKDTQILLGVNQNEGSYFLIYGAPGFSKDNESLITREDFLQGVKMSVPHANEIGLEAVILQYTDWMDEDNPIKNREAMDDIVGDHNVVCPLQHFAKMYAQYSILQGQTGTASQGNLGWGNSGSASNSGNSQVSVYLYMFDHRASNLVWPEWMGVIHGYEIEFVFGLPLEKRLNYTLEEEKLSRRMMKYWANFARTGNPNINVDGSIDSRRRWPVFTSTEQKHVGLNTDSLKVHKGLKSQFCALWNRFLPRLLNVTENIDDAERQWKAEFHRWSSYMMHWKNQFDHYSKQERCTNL
readout: Propidium Displacement (%)
Answer in %, number only, no unit symbol.

The compound identified as CC(C)(C)c1cc(C=NCCCCCCNc2c3c(nc4ccccc24)CCCCC3)cc(C(C)(C)C)c1O [15c] registered its Propidium Displacement at 16.8

The compound identified as CC(C)(C)c1cc(CNCCCCCCNc2c3c(nc4ccccc24)CCCC3)cc(C(C)(C)C)c1O [17c] registered its Propidium Displacement at 16.1

The compound identified as CC(C)(C)c1cc(C=NCCCCCCCCNc2c3c(nc4ccccc24)CCCC3)cc(C(C)(C)C)c1O [14d] registered its Propidium Displacement at 14.8

The compound identified as CC(C)(C)c1cc(CNCCCCNc2c3c(nc4ccccc24)CCCCC3)cc(C(C)(C)C)c1O [18b] registered its Propidium Displacement at 15.7

The compound identified as CC(C)(C)c1cc(CNCCCCCCCCNc2c3c(nc4ccccc24)CCC3)cc(C(C)(C)C)c1O [16d] registered its Propidium Displacement at 13.9

The compound identified as CC(C)(C)c1cc(CNCCCCCCNc2c3c(nc4ccccc24)CCCCC3)cc(C(C)(C)C)c1O [18c] registered its Propidium Displacement at 12.5

###

Provide the reported Propidium Displacement of each item.
molecular target: peripheral anionic site of Electrophorus electricus AChE (EeAChE) (Electrophorus electricus); type: binding;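 note: compounds tested at 20 µM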

The compound identified as CC(C)(C)c1cc(C=NCCCCCCNc2c3c(nc4ccccc24)CCCC3)cc(C(C)(C)C)c1O [14c] registered its Propidium Displacement at 19.7 ± 1.5 **^,§ %

The compound identified as CC(C)(C)c1cc(C=NCCCCNc2c3c(nc4ccccc24)CCCC3)cc(C(C)(C)C)c1O [14b] registered its Propidium Displacement at 17.6 ± 1.4 *^,§ %

The compound identified as CC(C)(C)c1cc(C=NCCCCNc2c3c(nc4ccccc24)CCCCC3)cc(C(C)(C)C)c1O [15b] registered its Propidium Displacement at 18.4 ± 1.4 **^,§ %

The compound identified as CC(C)(C)c1cc(CNCCCCNc2c3c(nc4ccccc24)CCC3)cc(C(C)(C)C)c1O [16b] registered its Propidium Displacement at 17.5 ± 1.5 *^,§ %

The compound identified as CC(C)(C)c1cc(C=NCCCCNc2c3c(nc4ccccc24)CCC3)cc(C(C)(C)C)c1O [13b] registered its Propidium Displacement at 20.0 ± 1.6 ***^,§ %
